Would you kindly list inhibition (INH) for each of these molecules?
Tested on: Hepatitis B virus
Test: Antiviral activity against Hepatitis B virus infected in human HepG2.2.15 cells assessed as inhibition of HBeAg secretion at 20 uM supplemented with fresh medium containing compound every 3 days for 6 days and measured on day 9 by ELISA relative to control
Type: functional

Worked examples, 4 molecules total:
MOLECULE	inhibition (INH)
CNc1ncnc2c1nnn2[C@@H]1O[C@H](CO)[C@@H](O)[C@@]1(C)F	24.4%
C[C@@]1(F)[C@H](O)[C@@H](CO)O[C@H]1n1nnc2c(Nc3ccccc3)ncnc21	17.7%
C[C@@]1(F)[C@H](O)[C@@H](CO)O[C@H]1n1nnc2c(Nc3ccc(Cl)cc3F)ncnc21	31.6%
Nc1ccn([C@@H]2CS[C@H](CO)O2)c(=O)n1 [LAMIVUDINE]	39.6%

IN: For "C[C@@]1(F)[C@H](O)[C@@H](CO)O[C@H]1n1nnc2c(=O)[nH]cnc21" , what is its reported inhibition (INH)?
OUT: 7.4%
